- TARGET: cyclooxygenase-II (human COX-2) (Homo sapiens)
- Construct: endogenous in cells
- Sequence (P35354 18-604): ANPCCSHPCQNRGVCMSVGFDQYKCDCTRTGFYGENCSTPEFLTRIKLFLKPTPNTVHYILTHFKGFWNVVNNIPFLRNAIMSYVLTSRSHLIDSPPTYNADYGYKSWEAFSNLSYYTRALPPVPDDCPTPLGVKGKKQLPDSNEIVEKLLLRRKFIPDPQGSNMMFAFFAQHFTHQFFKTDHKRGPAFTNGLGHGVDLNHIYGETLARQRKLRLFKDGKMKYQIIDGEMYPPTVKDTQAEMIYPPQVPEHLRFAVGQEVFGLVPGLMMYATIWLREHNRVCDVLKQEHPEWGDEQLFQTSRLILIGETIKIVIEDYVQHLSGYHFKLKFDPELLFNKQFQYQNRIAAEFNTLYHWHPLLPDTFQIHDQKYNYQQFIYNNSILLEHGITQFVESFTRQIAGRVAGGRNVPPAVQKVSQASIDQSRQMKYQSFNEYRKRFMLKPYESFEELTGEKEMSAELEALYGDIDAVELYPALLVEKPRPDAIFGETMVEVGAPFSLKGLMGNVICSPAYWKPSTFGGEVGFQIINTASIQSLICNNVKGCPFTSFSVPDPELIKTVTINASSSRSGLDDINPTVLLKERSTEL
- TEST SUMMARY: Human COX-2 Test (LPS-stimulated human monocytoid cell line, arachidonic acid, ELISA of cyclooxygenase products)
- CONDITION LABEL: LPS-stimulated human monocytoid cell line, half an hour incubation, then arachidonic acid 15 minutes, 37° C.
- Experimental: Cells of a human monocytoid cell line were stimulated with lipopolysaccharide (LPS) (incubator at 37° C., 5% CO2 -enriched atmosphere and almost 100% atmospheric humidity), in order to induce COX-2. […] The culture supernatant of the cells is removed and its content of products of cyclooxygenase metabolism (e.g. Prostaglandin E2, Prostaglandin F1a, Thromboxane B2) is measured by ELISA.
ENDPOINT NAME: pIC50
Field pIC50 (float): negative decimal logarithm of the concentration in molar.

*Q* cyclooxygenase-II (human COX-2) (Homo sapiens) / pIC50 / `CS(=O)(=O)Nc1ccc(S(N)(=O)=O)c(Cl)c1Sc1ccc(Cl)cc1Cl` : value?
*A* 7.00

*Q* Lookup: pIC50 / cyclooxygenase-II (human COX-2) (Homo sapiens) / `C=CS(=O)(=O)Nc1ccc(S(N)(=O)=O)cc1Sc1ccc(Cl)cc1Cl`
*A* 7.00
